target: OX2 (Homo sapiens); test: Measurement of orexin receptor-binding ability ([125I]-OX-A, cell membranes, OX2); set-up: expressed in transfected cells; host or cells: CHO cells (membrane preparation); details: membranes of recombinant CHO cells expressing OX2, 0.2 nM [125I]-OX-A; read-out: OX2 (IC50)
IC50: recorded values
Property: IC50

>  <Compound>
Cc1ncc(OC[C@@]2(c3ccccc3)C[C@H]2C(=O)Nc2cccc(Cl)n2)c(C)n1 [Example 12]

>  <Target Under Test>
OX2 (Homo sapiens)

>  <Property>
IC50

>  <Readout Value>
53 nM

$$$$
>  <Compound>
Cc1ncc(OC[C@@]2(c3cc(F)cc(F)c3)C[C@H]2C(=O)Nc2ccc(F)cc2F)c(C)n1 [Example 135]

>  <Target Under Test>
OX2 (Homo sapiens)

>  <Property>
IC50

>  <Readout Value>
8 nM

$$$$
>  <Compound>
Cc1ncc(OC[C@@]2(c3ccc(F)c(F)c3)C[C@H]2C(=O)Nc2ccc(F)cc2)c(C)n1 [Example 165]

>  <Target Under Test>
OX2 (Homo sapiens)

>  <Property>
IC50

>  <Readout Value>
7 nM

$$$$
>  <Compound>
Cc1ncc(OCC2(c3ccc(Cl)cc3)CC2C(=O)Nc2cccnc2)c(C)n1 (stereo not shown) [Example 160]

>  <Target Under Test>
OX2 (Homo sapiens)

>  <Property>
IC50

>  <Readout Value>
28 nM

$$$$
>  <Compound>
COCc1nc(C)ncc1OC[C@@]1(c2ccc(F)cc2)C[C@H]1C(=O)Nc1ccc(F)c(F)c1 [Example 207]

>  <Target Under Test>
OX2 (Homo sapiens)

>  <Property>
IC50

>  <Readout Value>
9 nM

$$$$
>  <Compound>
CCc1nc(C)ncc1OC[C@@]1(c2ccccc2)C[C@H]1C(=O)Nc1cc(C)c(F)cn1 [Example 122]

>  <Target Under Test>
OX2 (Homo sapiens)

>  <Property>
IC50

>  <Readout Value>
7 nM

$$$$
>  <Compound>
COCc1nc(C)ncc1OC[C@@]1(c2cccc(F)c2)C[C@H]1C(=O)Nc1cccc(F)c1 [Example 195]

>  <Target Under Test>
OX2 (Homo sapiens)

>  <Property>
IC50

>  <Readout Value>
3 nM

$$$$
>  <Compound>
CCc1nc(C)ncc1OC[C@@]1(c2ccc(F)cc2)C[C@H]1C(=O)Nc1cccc(F)c1 [Example 249]

>  <Target Under Test>
OX2 (Homo sapiens)

>  <Property>
IC50

>  <Readout Value>
17 nM

$$$$
>  <Compound>
Cc1ncc(OCC2(c3ccc(F)cc3)CC2C(=O)Nc2ccc(C#N)cn2)c(C)n1 (stereo not shown) [Example 101]

>  <Target Under Test>
OX2 (Homo sapiens)

>  <Property>
IC50

>  <Readout Value>
84 nM

$$$$
>  <Compound>
COc1cccc(C2(COc3cnc(C)nc3C)CC2C(=O)Nc2cccnc2)c1 (stereo not shown) [Example 184]

>  <Target Under Test>
OX2 (Homo sapiens)

>  <Property>
IC50

>  <Readout Value>
21 nM

$$$$
>  <Compound>
Cc1ncc(OC[C@@]2(c3ccccc3)C[C@H]2C(=O)Nc2cccnc2)c(C)n1 [Example 66]

>  <Target Under Test>
OX2 (Homo sapiens)

>  <Property>
IC50

>  <Readout Value>
50 nM

$$$$
>  <Compound>
COCc1nc(C)ncc1OC[C@@]1(c2ccc(F)c(F)c2)C[C@H]1C(=O)Nc1ccc(F)cc1 [Example 213]

>  <Target Under Test>
OX2 (Homo sapiens)

>  <Property>
IC50

>  <Readout Value>
11 nM

$$$$
>  <Compound>
Cc1ncc(N(C)C[C@@]2(c3cccc(F)c3)C[C@H]2C(=O)Nc2cc(C)c(F)cn2)c(C)n1 [Example 293]

>  <Target Under Test>
OX2 (Homo sapiens)

>  <Property>
IC50

>  <Readout Value>
9 nM

$$$$
>  <Compound>
CCc1nc(C)ncc1OC[C@@]1(c2ccccc2)C[C@H]1C(=O)Nc1ccc(F)cc1 [Example 318]

>  <Target Under Test>
OX2 (Homo sapiens)

>  <Property>
IC50

>  <Readout Value>
11 nM

$$$$
>  <Compound>
Cc1ncc(OC[C@@]2(c3ccccc3)C[C@H]2C(=O)Nc2cccc(CC#N)c2)c(C)n1 [Example 39]

>  <Target Under Test>
OX2 (Homo sapiens)

>  <Property>
IC50

>  <Readout Value>
6 nM

$$$$
>  <Compound>
COCc1nc(C)ncc1OC[C@@]1(c2ccc(F)c(OC)c2)C[C@H]1C(=O)Nc1ccc(F)cc1 [Example 237]

>  <Target Under Test>
OX2 (Homo sapiens)

>  <Property>
IC50

>  <Readout Value>
31 nM

$$$$

----------
Biological target: OX2 (Homo sapiens)
Sequence (O43614 1-444): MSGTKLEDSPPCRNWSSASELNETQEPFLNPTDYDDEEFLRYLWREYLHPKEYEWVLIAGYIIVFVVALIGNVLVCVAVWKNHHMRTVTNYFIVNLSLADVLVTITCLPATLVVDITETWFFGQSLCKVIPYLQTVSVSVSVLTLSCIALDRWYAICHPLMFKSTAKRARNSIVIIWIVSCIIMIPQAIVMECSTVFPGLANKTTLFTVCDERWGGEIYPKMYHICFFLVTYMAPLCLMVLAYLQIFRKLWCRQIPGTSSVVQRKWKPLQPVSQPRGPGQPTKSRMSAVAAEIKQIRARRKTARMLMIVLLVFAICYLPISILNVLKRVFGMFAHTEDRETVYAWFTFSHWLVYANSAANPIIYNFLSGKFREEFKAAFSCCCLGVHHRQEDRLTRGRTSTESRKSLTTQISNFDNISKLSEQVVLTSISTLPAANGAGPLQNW
Experiment: Measurement of orexin receptor-binding ability ([125I]-OX-A, cell membranes, OX2)
Design: expressed in transfected cells; host or cells: CHO cells (membrane preparation)
Settings: membranes of recombinant CHO cells expressing OX2, 0.2 nM [125I]-OX-A; read-out: OX2 (IC50)
Experimental: 1. Measurement of Orexin Receptor-Binding Ability The assay was carried out using a 96-well Wheat Germ Agglutinin Flash Plate (PerkinElmer). The volume in a single assay well was 100 ul, and the composition of the reaction solution was as follows: […] Cell membranes were prepared from recombinant CHO cells that expressed OX2 or OX1. […] Finally, the radioactivity of each well was measured using a scintillation counter (TopCount, PerkinElmer).
IC50: recorded values

>  <Molecule>
Cc1ncc(OCC2(c3ccc(F)cc3)CC2C(=O)Nc2cccnc2)c(C)n1 (centres unmarked)

>  <IC50>
0.096 µM

$$$$
>  <Molecule>
COCc1nc(C)ncc1OC[C@@]1(c2cccc(F)c2)C[C@H]1C(=O)Nc1cc(C)c(F)cn1

>  <IC50>
0.002 µM

$$$$
>  <Molecule>
COCc1nc(C)ncc1OC[C@@]1(c2cc(F)cc(OC)c2)C[C@H]1C(=O)Nc1cc(C)c(F)cn1

>  <IC50>
0.004 µM

$$$$
>  <Molecule>
Cc1nc(C)[n+]([O-])cc1OC[C@@]1(c2ccccc2)C[C@H]1C(=O)Nc1ccc(F)nc1

>  <IC50>
0.063 µM

$$$$
>  <Molecule>
Cc1ncc(OC[C@@]2(c3ccccc3)C[C@H]2C(=O)Nc2cnc(Cl)c(Br)c2)c(C)n1

>  <IC50>
0.051 µM

$$$$
>  <Molecule>
COCc1nc(C)ncc1OC[C@@]1(c2ccc(F)cc2)C[C@H]1C(=O)Nc1cc(F)ccc1F

>  <IC50>
> 0.06 µM

$$$$
>  <Molecule>
Cc1ncc(OCC2(c3ccc(Cl)cc3)CC2C(=O)Nc2ccc(C#N)cn2)c(C)n1 (centres unmarked)

>  <IC50>
0.062 µM

$$$$
>  <Molecule>
Cc1ncc(OC[C@@]2(c3ccccc3)C[C@H]2C(=O)Nc2cnc(Br)c(C)c2)c(C)n1

>  <IC50>
0.089 µM

$$$$

----------
target: OX2 (Homo sapiens); experiment: Measurement of orexin receptor-binding ability ([125I]-OX-A, cell membranes, OX2); parameters: expressed in transfected cells; host or cells: CHO cells (membrane preparation); details: membranes of recombinant CHO cells expressing OX2, 0.2 nM [125I]-OX-A; read-out: OX2 (IC50)
pIC50: −log10 of the molar value.

>  <Molecule>
Cc1cc(NC(=O)[C@@H]2C[C@@]2(COc2cnc(C)nc2C)c2ccccc2)ccn1 [Example 28]

>  <Target Under Test>
OX2 (Homo sapiens)

>  <pIC50>
7.00

$$$$
>  <Molecule>
Cc1ncc(OC[C@@]2(c3ccc(F)c(F)c3)C[C@H]2C(=O)Nc2ccc(F)cc2F)c(C)n1 [Example 171]

>  <Target Under Test>
OX2 (Homo sapiens)

>  <pIC50>
7.96

$$$$
>  <Molecule>
COCc1nc(C)ncc1OC[C@@]1(c2ccc(F)c(F)c2)C[C@H]1C(=O)Nc1cc(F)ccc1F [Example 215]

>  <Target Under Test>
OX2 (Homo sapiens)

>  <pIC50>
7.92

$$$$
>  <Molecule>
COCc1nc(C)ncc1OC[C@@]1(c2ccc(F)cc2)C[C@H]1C(=O)Nc1ccc(F)cc1 [Example 203]

>  <Target Under Test>
OX2 (Homo sapiens)

>  <pIC50>
8.10

$$$$
>  <Molecule>
COCc1nc(C)ncc1OC[C@@]1(c2ccccc2)C[C@H]1C(=O)Nc1cc(Cl)ccn1 [Example 143]

>  <Target Under Test>
OX2 (Homo sapiens)

>  <pIC50>
7.85

$$$$
>  <Molecule>
Cc1ncc(OC[C@@]2(c3ccccc3)C[C@H]2C(=O)Nc2ccc(Cl)cn2)c(C)n1 [Example 16]

>  <Target Under Test>
OX2 (Homo sapiens)

>  <pIC50>
8.72

$$$$
>  <Molecule>
Cc1ncc(N(C)C[C@@]2(c3cccc(F)c3)C[C@H]2C(=O)Nc2ccc(F)cc2)c(C)n1 [Example 294]

>  <Target Under Test>
OX2 (Homo sapiens)

>  <pIC50>
7.85

$$$$
>  <Molecule>
Cc1ncc(OC[C@@]2(c3ccccc3)C[C@H]2C(=O)Nc2ccc(C(F)(F)F)cn2)c(C)n1 [Example 5]

>  <Target Under Test>
OX2 (Homo sapiens)

>  <pIC50>
7.42

$$$$
>  <Molecule>
CCc1nc(C)ncc1OC[C@@]1(c2cccc(F)c2)C[C@H]1C(=O)Nc1ccc(C#N)cn1 [Example 242]

>  <Target Under Test>
OX2 (Homo sapiens)

>  <pIC50>
8.40

$$$$
>  <Molecule>
Cc1ncc(OC[C@@]2(c3cc(F)cc(F)c3)C[C@H]2C(=O)Nc2cc(F)ccc2F)c(C)n1 [Example 136]

>  <Target Under Test>
OX2 (Homo sapiens)

>  <pIC50>
7.82

$$$$
>  <Molecule>
COCc1nc(C)ncc1OC[C@@]1(c2ccc(F)cc2)C[C@H]1C(=O)Nc1ccc(Cl)cn1 [Example 204]

>  <Target Under Test>
OX2 (Homo sapiens)

>  <pIC50>
8.30

$$$$
